# Experimental target: Free fatty acid receptor 4 (Mus musculus)
# Sequence (Q7TMA4 whole entry): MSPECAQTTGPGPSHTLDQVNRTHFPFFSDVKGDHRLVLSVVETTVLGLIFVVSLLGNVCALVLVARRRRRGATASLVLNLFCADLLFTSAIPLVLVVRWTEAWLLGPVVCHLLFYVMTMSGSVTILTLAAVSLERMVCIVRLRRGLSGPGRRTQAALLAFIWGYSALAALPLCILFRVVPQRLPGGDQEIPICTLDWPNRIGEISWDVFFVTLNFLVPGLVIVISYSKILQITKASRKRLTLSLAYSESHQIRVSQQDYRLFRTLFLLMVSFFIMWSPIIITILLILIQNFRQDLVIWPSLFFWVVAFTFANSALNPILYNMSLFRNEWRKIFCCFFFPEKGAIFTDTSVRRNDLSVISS
# Measurement notes: Agonist activity at mouse GPR120 by calcium flux assay
Metric: pEC50
For clarity, pEC50 is expressed as the negative log10 of concentration in mol/L.

Prompt: Lab request: please report pEC50 under test system Free fatty acid receptor 4 (Mus musculus) for O=C(O)CCc1cc(F)c(OCc2c(-c3ccc(Cl)c(F)c3)nsc2C(F)(F)F)c(F)c1
Response: 6.99

Prompt: Lab request: please report pEC50 under test system Free fatty acid receptor 4 (Mus musculus) for O=C(O)CCc1cc(F)c(OCc2c(-c3ccc(Cl)cc3F)nsc2C(F)(F)F)c(F)c1
Response: 7.11

---

# Measurement notes: Half life in SPF Sprague-Dawley rat at 10 mg/kg, po by LC-MS/MS analysis
# Format: ADME, organism-based
# Measurement setup: in vivo
Metric: half-life (min)
Supply the numeric figure in min, leaving out any unit text.

Prompt: Consider the compound O=C(O)CCc1cc(F)c(OCc2c(-c3ccc(Cl)cc3F)nsc2C(F)(F)F)c(F)c1 and give its measured half-life.
Response: 58.8

---

# Measurement notes: Kinetic solubility of the compound in PBS
# Assay type: physicochemical
# Measurement setup: read-out: Kinetic_solubility
Metric: solubility kinetic

Prompt: Consider the compound O=C(O)CCc1cc(F)c(OCc2c(-c3ccc(Cl)cc3F)nsc2C(F)(F)F)c(F)c1 and give its measured solubility kinetic.
Response: 38.9 µM

---

# Measurement notes: Cmax in DIO C57bl/6J mouse at 20 mg/kg, po administered via gavage by LC-MS/MS analysis
# Type: ADME, organism-based
# Design: dose 20 mg/kg, route oral
# Measurement setup: in vivo
Metric: Cmax (ng/mL)
Supply the numeric figure in ng/mL, leaving out any unit text.

Prompt: Consider the compound O=C(O)CCc1cc(F)c(OCc2c(-c3ccc(Cl)cc3F)nsc2C(F)(F)F)c(F)c1 and give its measured Cmax.
Response: 9270

---

# Measurement notes: Cmax in SPF Sprague-Dawley rat at 10 mg/kg, po by LC-MS/MS analysis
# Assay type: ADME, organism-based
# Design: dose 10 mg/kg, route oral
# Measurement setup: in vivo
Metric: Cmax (ng/mL)
Supply the numeric figure in ng/mL, leaving out any unit text.

Prompt: Consider the compound O=C(O)CCc1cc(F)c(OCc2c(-c3ccc(Cl)cc3F)nsc2C(F)(F)F)c(F)c1 and give its measured Cmax.
Response: 3560

---

# Measurement notes: Efflux ratio of apparent permeability from basolateral to apical side over apical to basolateral side in MDCK cells
# Type: ADME, cell-based, Canis lupus familiaris
# Measurement setup: dog
Metric: efflux ratio
Write no unit; give the number alone.

Prompt: Consider the compound O=C(O)CCc1cc(F)c(OCc2c(-c3ccc(Cl)cc3F)nsc2C(F)(F)F)c(F)c1 and give its measured efflux ratio.
Response: 1.05

---

# Experimental target: UniProt Q5NUL3
# Sequence (Q5NUL3 whole entry, looked up, stated change not applied, canonical isoform): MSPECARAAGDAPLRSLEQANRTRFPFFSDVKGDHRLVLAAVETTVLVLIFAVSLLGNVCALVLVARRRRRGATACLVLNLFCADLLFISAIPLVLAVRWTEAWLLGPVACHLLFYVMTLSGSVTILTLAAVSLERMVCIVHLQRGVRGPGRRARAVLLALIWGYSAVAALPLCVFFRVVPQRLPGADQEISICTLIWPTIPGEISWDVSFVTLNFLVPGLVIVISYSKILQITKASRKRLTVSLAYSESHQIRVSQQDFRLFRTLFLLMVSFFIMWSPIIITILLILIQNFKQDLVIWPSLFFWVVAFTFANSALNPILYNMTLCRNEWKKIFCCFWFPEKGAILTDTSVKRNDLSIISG
# Measurement notes: Agonist activity at human GPR120 short splice variant expressed in HEK293 cells assessed as increase in intracellular calcium flux incubated for 30 mins measured for 300 secs at 1 sec interval by Fluo-4 NW dye based FLIPR assay
# Format: functional, cell-based
Please respond with reported pEC50 for every item in the list.
For clarity, pEC50 is expressed as the negative log10 of concentration in mol/L.

Prompt: Consider the molecule Cc1cc(OCc2c(-c3ccc(Cl)cc3)nsc2C(F)(F)F)c(F)cc1CCC(=O)O and give its measured pEC50.
Response: 6.92

Prompt: Consider the molecule O=C(O)CCc1ccc(OCc2c(-c3ccc(Cl)cc3)nsc2C(F)(F)F)c(F)c1F and give its measured pEC50.
Response: 7.07

Prompt: Consider the molecule O=C(O)CCc1cc(F)c(OCc2c(-c3ccc(C(F)(F)F)cc3)nsc2C(F)(F)F)c(F)c1 and give its measured pEC50.
Response: 6.97

Prompt: Consider the molecule O=C(O)CCc1cc(F)c(OCc2c(-c3ccc(Cl)cc3)nsc2C(F)(F)F)c(F)c1F and give its measured pEC50.
Response: 6.98

Prompt: Consider the molecule Cc1c(CCC(=O)O)ccc(OCc2c(C(F)(F)F)nsc2-c2ccc(Cl)cc2)c1C and give its measured pEC50.
Response: 7.03

Prompt: Consider the molecule Cc1c(CCC(=O)O)cc(F)c(OCc2c(-c3ccc(Cl)cc3)nsc2C(F)(F)F)c1F and give its measured pEC50.
Response: 7.00

Prompt: Consider the molecule COc1ccc(-c2nsc(C(F)(F)F)c2COc2c(F)cc(CCC(=O)O)cc2F)cc1 and give its measured pEC50.
Response: 7.12
